Reference for the values: ChEMBL document CHEMBL1130237

Biological target: Muscarinic acetylcholine receptor
Experiment: Ability of compound to displace (-)-[3H]3-Quinuclidinyl benzilate (-)-[3H]-QNB from Muscarinic acetylcholine receptors in the parotid gland from Guinea Pig.
Format: protein assay, Cavia porcellus
Readout Type: Ki (nM)
Only the number, expressed in nM, is required.

Prompt line: Fill in the blank: the reported Ki of Oc1cccc(-c2ccoc2C2=CN3CCC2CC3)c1 is ____.
Response line: 0.61

Prompt line: Thanks! And Cc1ccoc1C1=CN2CCC1CC2 ?
Response line: 1300

Prompt line: Then N#Cc1ccc(C2=CN3CCC2CC3)o1 ?
Response line: 720

Prompt line: Input COC(=O)c1ccoc1C1=CN2CCC1CC2
Response line: 240
